Values from PubChem BioAssay (NCI)

system: SF-539 CNS; test: NCI-60 one-dose screen, 48 h (100 = growth as untreated, 0 = no growth, -100 = all killed); conditions: 10 µM unless noted
Compounds without any hit were thinned out: in the full panel of roughly 83,000, 20% have a hit.
# label = bin(measured growth), where bins are interval 1 = under -60%, interval 2 = from -60% up to 60%, interval 3 = 60% and over

>>> answer_label("COc1cc2oc(-c3cccc(NC(=O)[C@H](Cc4ccccc4)NC(=O)OC(C)(C)C)c3)cc(=O)c2c(OC)c1OC")
"interval 2"
>>> answer_label("Cc1cc2nc3c4ccccc4n(CCCN(C)C)c3nc2cc1C")
"interval 1"
>>> answer_label("CNC(=O)c1cc(Oc2ccc3nc(NC(=O)Nc4cccc(OC(F)(F)F)c4)sc3c2)ccn1")
"interval 2"
>>> answer_label("COc1cc(C2CC(c3cc(OC)c(OC)c(OC)c3)=NN2C(C)=O)ccc1OCc1ccc(F)cc1 (centres undefined)")
"interval 3"
>>> answer_label("O=C1Nc2ccc([N+](=O)[O-])cc2C1=Nc1ccccc1")
"interval 3"
>>> answer_label("CN(C)CCn1c2ccccc2c2nc3ccc([N+](=O)[O-])cc3nc21")
"interval 2"
>>> answer_label("Cn1cc(NC(=O)c2cc(NC(=O)c3ccc(C#Cc4ccccc4)cc3)cn2C)cc1C(=O)NCCCN1CCOCC1")
"interval 1"
>>> answer_label("OCNc1ccc(-n2cnc3cc(-c4ccc(O)cc4)ccc32)cc1C(F)(F)F")
"interval 2"

---

Recorded growth for the following compounds
tested on: UACC-257 melanoma; experiment: NCI-60 one-dose screen, 48 h (100 = growth as untreated, 0 = no growth, -100 = all killed); settings: 10 µM unless noted
Compounds without any hit were thinned out: in the full panel of roughly 83,000, 20% have a hit.
property_measured: growth (%)

>>> reading("COc1c(F)ccc(C(=O)Nc2ccc3nc(NC(=O)C4CCCN(S(=O)(=O)c5cccc(C(F)(F)F)c5)C4)sc3c2)c1F (stereo not drawn)")
89.9
>>> reading("Cc1ccc(-c2nc(C#N)c(S(=O)(=O)N3CCN(S(=O)(=O)c4ccc(Cl)cc4)CC3)o2)cc1")
89.5
>>> reading("C=C1CC[C@@H]2[C@]3(C)COC(c4cn[nH]c4-c4cccc(Cl)c4)O[C@@H]3CC[C@@]2(C)[C@@H]1C/C=C1/C(=O)OCC1O (stereo partly drawn)")
-33.1
>>> reading("COc1cc2c(c(OC)c1OC)C(=O)CC(c1cccc(NC(=O)c3cc(NC(=O)[C@@H](N)CO)ccc3C)c1)O2 (stereo partly drawn)")
104
>>> reading("Cc1ccc(C(=O)C(c2c[nH]c3ccccc23)c2c[nH]c3ccccc23)cc1")
76.6
>>> reading("CC(=O)Nc1cccc(Nc2nc(N[C@H]3CCCc4ccccc43)c3ccccc3n2)c1")
102
>>> reading("CCCCSc1nc(NCCc2c[nH]c3ccccc23)c(C#N)c(-c2ccccc2)n1")
81.4
>>> reading("COc1cc2oc(-c3cccc(C(=O)Nc4ccc(Cl)cc4)c3)cc(=O)c2c(OCC(=O)N[C@@H](Cc2ccccc2)C(=O)O)c1OC")
104

---

system: UACC-62 melanoma; assay: NCI-60 one-dose screen, 48 h (100 = growth as untreated, 0 = no growth, -100 = all killed); settings: 10 µM unless noted
About 83,000 compounds went through this panel and 20% of them were active in at least one assay; those are over-represented in the sample as a whole.
Recorded growth for the following molecules
property_measured: growth (%)

>>> reading("N#Cc1c(-c2cccc(Cl)c2Cl)cc(-c2ccc3ccccc3c2)[nH]c1=O")
76.2
>>> reading("Cc1cc(=O)oc2cc(OCCOc3ccc(/C=C/C(=O)Nc4ccccc4N)cc3)ccc12")
33.2
>>> reading("COc1ccc(NC(=O)Nc2ccc(OCc3ccc(F)cc3)cc2)cc1")
82.6
